# Test system: HCT-116 colon
# Assay protocol: NCI-60 one-dose screen, 48 h (100 = growth as untreated, 0 = no growth, -100 = all killed)
# Experimental setup: 10 µM unless noted
This is part of a sample that, as a whole, favours compounds with a hit. Of some 83,000 tested, about 20% had one in any assay.
Rule for this label: rule met means growth is less than 40%; rule not met means growth is at least 40%.

Compound | Cat
COc1ccc(C(=O)c2cc(C)c(OC)c(C)c2)c(OC)c1NC(C)=O | rule met
O=C(NNc1nc2c(F)cccc2n2cccc12)c1cnccn1 | rule met
N=C(N)c1ccc(OCCCCCCCCCCOc2ccc(C(=N)N)cc2)cc1 | rule met
CCCOc1ccc(/C=N/Nc2cc(C)nc3ccc(Cl)cc23)cc1 | rule met
O=C(CCN1CCCC1)Nc1ccc2c(Nc3ccc(Br)cc3)c3ccccc3nc2c1 | rule met
O=C(c1nc2ccccc2[nH]1)C1C(c2ccc(Br)cc2)C2CC3CCCC[C@H]3N2[C@@]12C(=O)Nc1cc(Cl)ccc12 (stereo partly drawn) | rule met

[in] Bench note: check whether "COc1ccc(CNCCN2C(=O)c3ccc4c5c(ccc(c35)C2=O)C(=O)N(CCNCc2ccc(OC)c(OC)c2OC)C4=O)c(OC)c1OC" shows growth below 40%
[out] rule met

[in] Bench note: check whether "COc1cc(/C=C/c2cc(O)c(C(C)=O)c(O)c2)cc2c1O[C@]1(C)CC[C@@H](O)C(C)(C)[C@H]1C2" shows growth below 40%
[out] rule not met

[in] Bench note: check whether CN1C(=O)NC(c2ccc3c(c2)OCO3)C=C1c1ccccc1 (stereo not drawn) shows growth below 40%
[out] rule not met

[in] Bench note: check whether "COc1ccc(/C=C/c2nc(Nc3ccc(S(=O)(=O)NC(C)=O)cc3)c3ccccc3n2)cc1" shows growth below 40%
[out] rule not met

[in] Bench note: check whether O=C(c1ccccc1)N1N=C(c2ccc(-n3ccc(C(F)(F)F)n3)c(F)c2)CC1c1ccc[nH]1 (stereo not drawn) shows growth below 40%
[out] rule not met

[in] Bench note: check whether "Nc1nc(Nc2ccccc2SSc2ccccc2Nc2nc(N)nc(-c3cccs3)n2)nc(-c2ccsc2)n1" shows growth below 40%
[out] rule not met

[in] Bench note: check whether "CCN(CC)c1ccc(/C=N/NC(=O)CSc2nc3ccccc3c(=O)n2CCc2ccc(S(N)(=O)=O)cc2)c(O)c1" shows growth below 40%
[out] rule met

[in] Bench note: check whether C=C1C(=O)O[C@H]2[C@H]1CC/C(CNC(=O)C(C)c1ccc(CC(C)C)cc1)=C\CC[C@@]1(C)O[C@@H]21 (stereo partly drawn) shows growth below 40%
[out] rule met

[in] Bench note: check whether "Cc1c(C(=O)NCCC(=O)NO)sc2ncnc(Nc3ccc(NC(=O)Nc4cccc(C(F)(F)F)c4)cc3)c12" shows growth below 40%
[out] rule not met

[in] Bench note: check whether "C=C1C(=O)O[C@H]2[C@H]1CC/C(CNS(=O)(=O)c1cccc3ccccc13)=C\CC[C@@]1(C)O[C@@H]21" shows growth below 40%
[out] rule met

[in] Bench note: check whether "CCOC(=O)c1ccc2c(c1)ncn2-c1ccc(NC(=O)Nc2cccc(C)c2)cc1" shows growth below 40%
[out] rule not met

[in] Bench note: check whether "Cc1c(C(=O)NCCC(=O)NO)sc2ncnc(Nc3ccc(F)c(Cl)c3)c12" shows growth below 40%
[out] rule not met

[in] Bench note: check whether "CC(=O)Oc1ccc(/C=N/NC(N)=S)nc1" shows growth below 40%
[out] rule not met

[in] Bench note: check whether CC(=O)N1c2ccccc2NC2=C(C(=O)NC2(C)C)C1c1ccco1 (stereo not drawn) shows growth below 40%
[out] rule not met

[in] Bench note: check whether "Nc1n[nH]c2cccc(C#Cc3cccc(C(=O)Nc4cccc(C(F)(F)F)c4)c3)c12" shows growth below 40%
[out] rule met

[in] Bench note: check whether "Cc1nc(N)nc(N[C@@H](C)c2nc3cccc(NCc4ccc(C(=O)NO)cc4)c3c(=O)n2-c2ccccc2)n1" shows growth below 40%
[out] rule not met
